- assay summary: ancillary pharmacokinetic study, plasma, HPLC-MS/MS
- test context: human, plasma, iv, 1000 mg/m^2
measured attribute: Tmax (min)
// return numeric value only (unit: min, not printed)

Req: I would be grateful if you could share the reported Tmax for Nc1ccn([C@@H]2O[C@H](CO)[C@@H](O)C2(F)F)c(=O)n1 .
Resp: 30

###

- assay summary: ancillary pharmacokinetic study, plasma, HPLC-MS/MS
- test context: human, plasma, iv
measured attribute: Tmax (h)
// return numeric value only (unit: h, not printed)

Req: I would be grateful if you could share the reported Tmax for CC(C)[C@H]1C(=O)N[C@@H](CCCN=C(N)N)C(=O)NCC(=O)N[C@@H](CC(=O)O)C(=O)N[C@H](Cc2ccccc2)C(=O)N1C [Cilengitide, Cyclo-l-Arg-l-Asp-d-Phe-N (Me) l-Val] .
Resp: 1
